Tgt: human GST-HPK1 (1-346) (Homo sapiens, UniProt Q92918)
Sequence (Q92918 1-346): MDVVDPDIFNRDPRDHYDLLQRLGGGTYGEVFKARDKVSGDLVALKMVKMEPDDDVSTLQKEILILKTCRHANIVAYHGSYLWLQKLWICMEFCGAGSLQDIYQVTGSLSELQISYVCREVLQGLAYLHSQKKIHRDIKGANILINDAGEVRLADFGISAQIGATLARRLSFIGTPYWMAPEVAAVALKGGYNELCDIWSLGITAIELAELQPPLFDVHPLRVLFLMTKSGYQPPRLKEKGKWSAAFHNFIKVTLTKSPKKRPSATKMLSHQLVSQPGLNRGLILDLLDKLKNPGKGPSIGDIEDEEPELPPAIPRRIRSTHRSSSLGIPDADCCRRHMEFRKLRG
Metric name: IC50

Known IC50 results, listed for orientation:
| Compound | Tgt | Metric name | Test value |
| --- | --- | --- | --- |
| CN(C)[C@@H]1CCN(c2cccc(Nc3nc(N4OCC[C@H]4c4ccccc4)c4sccc4n3)c2)C1 [Example 61] | human GST-HPK1 (1-346) (Homo sapiens, UniProt Q92918) | IC50 | > 500 nM |
| c1ccc([C@@H]2CCON2c2nc(Nc3ccc(N4CCC(N5CCN(C6CC6)CC5)CC4)cc3)nc3[nH]ccc23)cc1 [Example 86] | human GST-HPK1 (1-346) (Homo sapiens, UniProt Q92918) | IC50 | > 500 nM |
| CN(C)C1CCN(c2ccc(Nc3nc(N4N=CCC4c4ccccc4)c4sccc4n3)cc2)CC1 (stereo not shown) [Example 38] | human GST-HPK1 (1-346) (Homo sapiens, UniProt Q92918) | IC50 | > 500 nM |
| COc1cc(Nc2nc(N3OCC[C@H]3c3ccccc3)c3sccc3n2)ccc1N1CCC(N2CCN(C)CC2)CC1 [Example 57] | human GST-HPK1 (1-346) (Homo sapiens, UniProt Q92918) | IC50 | > 500 nM |
| COc1cc(Nc2nc(N3OCC[C@H]3c3ccccc3)c3cc[nH]c3n2)ccc1N1CCN(CCO)CC1 [Example 82] | human GST-HPK1 (1-346) (Homo sapiens, UniProt Q92918) | IC50 | ≥ 250 nM |

Exercise: Supply reported IC50 belonging to this compound: C1=NN(c2nc(Nc3cnn(C4CCNCC4)c3)nc3ccsc23)C(c2ccccc2)C1 (stereo not shown) [Example 28]
Key: > 500 nM

Exercise: Supply reported IC50 belonging to this compound: CN1CCN(C2CCN(c3ccc(Nc4nc(N5OCC[C@H]5c5ccccc5)c5c(C#N)c[nH]c5n4)cc3)CC2)CC1 [Example 119]
Key: ≥ 250 nM

###

pIC50: −log10 of the molar value.
Measurement record for human GST-HPK1 (1-346) (Homo sapiens, UniProt Q92918); quantity recorded: pIC50.

Known pIC50 results, listed for orientation:
| Compound | Tgt | Test value |
| --- | --- | --- |
| CN1CCc2cc(Nc3nc(N4OCC[C@H]4c4ccccc4)c4cc[nH]c4n3)ccc2C1 [Example 109] | human GST-HPK1 (1-346) (Homo sapiens, UniProt Q92918) | ≤ 6.60 |
| OCCN1CCN(C2CCN(c3ccc(Nc4nc(N5OCC[C@H]5c5ccccc5)c5cc[nH]c5n4)cc3)CC2)CC1 [Example 89] | human GST-HPK1 (1-346) (Homo sapiens, UniProt Q92918) | ≤ 6.60 |
| COc1cc(Nc2nc(N3N=CCC3c3ccccc3)c3cc[nH]c3n2)ccc1N1CCC(N2CCN(C)CC2)CC1 (stereo not drawn) [Example 69] | human GST-HPK1 (1-346) (Homo sapiens, UniProt Q92918) | < 6.30 |
| CCN(CC)CCOc1ccc(Nc2nc(N3N=CCC3c3ccccc3)c3sccc3n2)cc1 (stereo not drawn) [Example 45] | human GST-HPK1 (1-346) (Homo sapiens, UniProt Q92918) | < 6.30 |
| C[C@@H]1CN(Cc2cc(Nc3nc(N4N=CCC4c4ccccc4)c4sccc4n3)cc(C3CC3)c2)C[C@H](C)N1 (stereo partly drawn) [Example 12] | human GST-HPK1 (1-346) (Homo sapiens, UniProt Q92918) | < 6.30 |
| CN1CCN(C(=O)c2ccc(Nc3nc(N4N=CCC4c4ccccc4)c4sccc4n3)cc2)CC1 (stereo not drawn) [Example 11] | human GST-HPK1 (1-346) (Homo sapiens, UniProt Q92918) | < 6.30 |

Exercise: Supply pIC50 measured with human GST-HPK1 (1-346) (Homo sapiens, UniProt Q92918) for COc1cc(C(=O)N2CCC(N3CCOCC3)CC2)ccc1Nc1nc(N2OCC[C@H]2c2ccccc2)c2cc[nH]c2n1 [Example 97] .
Key: < 6.30

Exercise: Supply pIC50 measured with human GST-HPK1 (1-346) (Homo sapiens, UniProt Q92918) for CCN(CC)CCCOc1ccc(Nc2nc(N3N=CCC3c3ccccc3)c3sccc3n2)cc1 (stereo not drawn) [Example 47] .
Key: < 6.30

Exercise: Supply pIC50 measured with human GST-HPK1 (1-346) (Homo sapiens, UniProt Q92918) for OCCN1CC[C@@H](Oc2cc(Nc3nc(N4OCC[C@H]4c4ccccc4)c4cc[nH]c4n3)cc(C3CC3)c2)C1 [Example 93] .
Key: < 6.30

Exercise: Supply pIC50 measured with human GST-HPK1 (1-346) (Homo sapiens, UniProt Q92918) for CC1(C)OC(=O)c2ccc(Nc3nc(N4OCC[C@H]4c4ccccc4)c4cc[nH]c4n3)cc21 [Example 115] .
Key: < 6.30

Exercise: Supply pIC50 measured with human GST-HPK1 (1-346) (Homo sapiens, UniProt Q92918) for CN1CCN(c2ccc(Nc3nc(N4OCC[C@H]4c4ccccc4)c4c(C#N)c[nH]c4n3)cc2)CC1 [Example 118] .
Key: ≤ 6.60

Exercise: Supply pIC50 measured with human GST-HPK1 (1-346) (Homo sapiens, UniProt Q92918) for COc1cc2c(cc1Nc1nc(N3OCC[C@H]3c3ccccc3)c3c(C#N)c[nH]c3n1)CN(C1CC1)CC2 [Example 122] .
Key: < 6.30

Exercise: Supply pIC50 measured with human GST-HPK1 (1-346) (Homo sapiens, UniProt Q92918) for CN1CCN(c2ccc(Nc3nc(N4N=CCC4c4ccncc4)c4sccc4n3)cc2)CC1 (stereo not drawn) [Example 35] .
Key: < 6.30

Exercise: Supply pIC50 measured with human GST-HPK1 (1-346) (Homo sapiens, UniProt Q92918) for CC(C)(O)CN1CCc2cc(Nc3nc(N4OCC[C@H]4c4ccccc4)c4cc[nH]c4n3)ccc2C1 [Example 111] .
Key: ≤ 6.60

Exercise: Supply pIC50 measured with human GST-HPK1 (1-346) (Homo sapiens, UniProt Q92918) for CN1CCN(c2ccc(Nc3nc(N4OCC[C@H]4c4ccccc4)c4cc[nH]c4n3)cc2)CC1 [Example 74] .
Key: ≤ 6.60

###

Tgt: human FLT3-ITD enzyme (Homo sapiens, UniProt P36888)
Assay remarks: FLT3 enzyme inhibitory ability (ADP-Glo kinase assay)
Setup conditions: human FLT3-ITD enzyme 10 ng, ATP 10 μM, 25° C. 1 hour
pIC50: −log10 of the molar value.
Metric name: pIC50

| Compound | pIC50 |
| --- | --- |
| CCN(CC)CCCOc1c(C)cc(Nc2nc(N3OCC[C@H]3c3ccccc3)c3cc[nH]c3n2)cc1C | ≤ 6.60 |
| CCN(CC)CCOc1c(C)cc(Nc2nc(N3N=CCC3c3ccccc3)c3sccc3n2)cc1C (centres unmarked) | < 6.30 |

Exercise: Supply pIC50 measured with human FLT3-ITD enzyme (Homo sapiens, UniProt P36888) for CN1CCc2cc(Nc3nc(N4OCC[C@H]4c4ccccc4)c4cc[nH]c4n3)ccc2C1 .
Key: ≤ 6.60

Exercise: Supply pIC50 measured with human FLT3-ITD enzyme (Homo sapiens, UniProt P36888) for CC1(C)OC(=O)c2ccc(Nc3nc(N4OCC[C@H]4c4ccccc4)c4cc[nH]c4n3)cc21 .
Key: < 6.30

Exercise: Supply pIC50 measured with human FLT3-ITD enzyme (Homo sapiens, UniProt P36888) for CN(C)[C@@H]1CCN(c2ccc(Nc3nc(N4N=CCC4c4ccccc4)c4sccc4n3)cc2)C1 (some centres unmarked) .
Key: 6.30 to 6.60

Exercise: Supply pIC50 measured with human FLT3-ITD enzyme (Homo sapiens, UniProt P36888) for CCN1CCN(C2CCN(c3ccc(Nc4nc(N5N=CCC5c5ccccc5)c5sccc5n4)cc3)CC2)CC1 (centres unmarked) .
Key: 6.30 to 6.60

Exercise: Supply pIC50 measured with human FLT3-ITD enzyme (Homo sapiens, UniProt P36888) for CN(C)[C@H]1CCN(c2cccc(Nc3nc(N4OCC[C@H]4c4ccccc4)c4sccc4n3)c2)C1 .
Key: < 6.30
